- Experimental Context: 298.15 K; 101.33 kPa; Liquid; Capillary tube (Ostwald / Ubbelohde) method

| Compound | viscosity (mPa·s) |
| --- | --- |
| CCCCCCCCO [octan-1-ol] | 7.143 |
| CCCCCCCCCCO [decan-1-ol] | 11.19 |
| CCCCCCO [hexan-1-ol] | 4.439 |
| NCCN [ethane-1,2-diamine] | 1.405 |

* * *

- Experimental Context: 298.15 K; 101.33 kPa; Liquid; Sing-around technique in a fixed-path interferometer
Reported speed of sound is given for each of the following molecules.

| Compound Structure | Display Unit | speed of sound |
| --- | --- | --- |
| CCCCCCCCO | m/s | 1347.5 |
| NCCN | m/s | 1671.6 |
| CCCCCCCCCCO | m/s | 1379.8 |
| CCCCCCO | m/s | 1303.2 |

* * *

- Experimental Context: 298.15 K; 101.33 kPa; Liquid; Vibrating tube method
Reported mass density is given for each of the following compounds.
Measurement Type: mass density (kg/m3)

| Compound Structure | Measurement Type | Observed Measurement |
| --- | --- | --- |
| NCCN | mass density | 892.389 |
| CCCCCCCCO | mass density | 821.794 |
| CCCCCCCCCCO | mass density | 826.47 |
| CCCCCCO | mass density | 815.265 |
